# Test system: HL-60
# assayName: NCI tumour cell line growth inhibition, 48 h
The source made the active and inactive calls. Cut-off read from the data, not from the text of the source: active = GI50 up to about 1.1 µM and inactive = higher.
measuredQuantity: GI50

Enter recorded GI50 with HL-60 for CC(C)(C)OCC1NC(=O)[C@@H]2Cc3c([nH]c4ccccc34)C(c3ccccc3)N2C1=O (stereo not given in full) here.
> 26.2 µM (inactive)

Give measured GI50 for O=C(CSc1nnc(-c2ccc(/N=C\c3ccc(Cl)cc3)cc2)o1)Nc1cccc(Cl)c1 (HL-60).
> 100 µM (inactive)

# return GI50 of Cc1ccc(-c2cc(-c3ccccc3)nc(N)n2)c(O)c1 (system: HL-60)
2.22 µM (inactive)

Write down the reported GI50 (system: HL-60) of COc1ccc(/C=C2\CCC(C)C3C2=NN(c2ccccc2)C3c2ccc(OC)c(OC)c2)cc1OC (stereo not given)
1.54 µM (inactive)

Give measured GI50 for COc1ccc2[nH]c(=O)cc(C)c2c1[N+](=O)[O-] (HL-60).
> 100 µM (inactive)

###

Answer each item with its documented GI50.
# Test system: SK-MEL-28
# assayName: NCI tumour cell line growth inhibition, 48 h
Active and inactive are the calls of the source. Rule as the data show it: active = GI50 up to about 1.1 µM and inactive = higher.

Send back SK-MEL-28 GI50 of O=C(c1ccco1)N(C(=S)N1CCN(c2ccccn2)CC1)c1ccccc1 only.
> 100 µM (inactive)

Determine reported GI50 for Nc1ccc2c(c1)NCCN2 ; test system: SK-MEL-28.
> 100 µM (inactive)

// fetch GI50; item: CC1(C)[C@@H](Cn2ccc(=O)[nH]c2=O)CC[C@@]1(C)CO ; system: SK-MEL-28
> 100 µM (inactive)

# return GI50 for COc1cc2c3cc1Oc1c(O)c(OC)cc4c1[C@H](Cc1ccc(cc1)Oc1cc(ccc1O)C[C@H]3N(C)CC2)N(C)CC4 , test system: SK-MEL-28
19.2 µM (inactive)

Provide GI50, system SK-MEL-28, entry COc1cccc(C23CCN(C)C(CC(O)C2)C3)c1OC (stereo not given)
> 100 µM (inactive)

###

# Tested on: UO-31
# assayName: NCI tumour cell line growth inhibition, 48 h
Active and inactive are the calls of the source. No stated cut-off is given here; in the data, active = GI50 up to about 1.1 µM and inactive = higher.
Reply using exactly one outcome from YES for active, NO for inactive

What was the test verdict on CO/N=C(\C(=O)Nc1cncs1)c1csc(NC(c2ccccc2)(c2ccccc2)c2ccccc2)n1 ?
NO

Given Cc1ccc(NC(=O)CC(=O)n2nc(C)c(/N=N/c3ccccc3C(=O)O)c2C)cc1 , state the outcome it received in this test.
NO

Each compound tested received a call. Report the one for CCOC(=O)C1C(c2ccccc2)=C(c2ccccc2)C(c2ccccc2)=C1c1ccccc1 .
NO

// param item: CCN(CC)CCCC(C)NC(=O)c1ccc2c(c1)C(=O)c1ccccc1C2=O (configuration not stated) ; yields the recorded call
NO

Give the logged outcome of this assay for the following compound: O=C1c2cccc(NCCCNCCO)c2C(=O)c2cccc(NCCCNCCO)c21
NO

Which outcome was assigned to COc1cc(C)c(C2NC(=O)c3ccccc3N2)cc1C (configuration not stated) in this test?
YES

Name the outcome recorded for COC(=O)C(C)Sc1nc2cc(Cl)ccc2s1 (configuration not stated) in the assay.
NO

Please let me know the test result on file for NCCN1CC2CCC(CC2)C1 .
NO

Query: recorded result category for Cc1cc2c(cc1C)C(=O)/C(=N/Nc1ccc(F)cc1)CCO2 in this test
NO

What did this assay record as the result for OC1c2ccccc2C2C(O)c3ccccc3C12 (configuration not stated) ?
NO

Any idea what this test logged for CCCc1cc(=O)oc2c3c(c4c(c12)OC(C)(C)CC4)O[C@H](C)[C@@H](C)[C@H]3O ?
NO

Outcome logged for Cc1cc2ncn(-c3nc4ccccc4nc3C(C#N)S(C)(=O)=O)c2cc1C (configuration not stated) in this assay:
NO

Could you please tell me the result logged for CCc1c(C)c(C#N)c(=S)n(C2OC(CO)C(O)C(O)C2O)c1C (configuration not stated) in this assay?
NO

// return assay outcome for O=C1c2c(F)c(F)c(F)c(F)c2SC2=Nc3cccc4cccc(c34)N12
NO

What call does the record list for CCN(CC)CCNC(=O)c1ccc([N+](=O)[O-])cc1OC ?
NO

Please indicate how the test categorized S=C1NC(c2ccccc2)NC(c2ccccc2)S1 (configuration not stated) .
NO

How did this test come out for O=C1CCc2cc3c(cc21)CC1(Cc2ccccc2C1)C3 ?
NO

Which result was noted for this compound in the test: CC1(C)C2CC(O)C1(C)CC2=O (configuration not stated)
NO

Just curious, what result did COc1c2c3c4c(c(OC)c(=O)c5c(O)cc(OC)c(c6c(OC)cc(O)c(c1=O)c63)c54)C(C(C)O)C2C(C)=O (configuration not stated) get here?
YES

For O=C(O)c1ccccc1CC(Cc1ccccc1)C(=O)O (configuration not stated) , which call appears in the assay record?
NO

# lookup: test call for O=C1C2C3C=C4c5ccccc5N(c5ccccc5)C4(C2C(=O)N1c1ccc([N+](=O)[O-])cc1)[C@H]1C(=O)N(c2ccc([N+](=O)[O-])cc2)C(=O)[C@@H]31 (some centres not stated)
NO

Please indicate how the test categorized COC(=O)C(=O)C(C(=O)C(=O)Nc1ccc(Cl)cc1Cl)c1nc2ccc(Cl)cc2nc1O (configuration not stated) .
NO

###

# Tested on: DU-145
# assayName: NCI tumour cell line growth inhibition, 48 h
Active and inactive are the calls of the source. Rule as the data show it: active = GI50 up to about 1.1 µM and inactive = higher.
Hi! Could you answer with just one of these? label 1 (active), label 0 (inactive)

Which result was noted for this compound in the test: COc1ccc([N+](=O)[O-])c2c(NCCCN(C)C)c3ccccc3nc12
label 1

Please share the test call associated with N#C[BH2-][n+]1ccc(C(=O)NNCc2ccccc2)cc1 .
label 0

# fetch the recorded call for O=C(O)c1ccccc1CC(Cc1ccccc1)C(=O)O (stereo unspecified) here
label 0

Each compound tested received a call. Report the one for COc1ccc2c(c1)/c(=C/C#N)c1c3ccccc3[n+](C)n21 .
label 0

Which outcome was entered for the compound COc1cc2c(cc1C)NC(=O)/C2=C\c1cccnc1 in this test?
label 0

Record lookup: outcome of this test for COc1ccc(CNc2nc(NCc3ccc(OC)cc3)nc(N3CCOCC3)n2)cc1 ?
label 0

Outcome logged for O=C(/C=C/c1ccc(O)c(O)c1)OCC(OC(=O)/C=C/c1ccc(O)c(O)c1)C(=O)O (stereo unspecified) in this assay:
label 0

For this compound, state the assay outcome: Nc1ccc(Oc2ccc(C34CC5CC(C3)CC(c3ccc(Oc6ccc(N)cc6C(F)(F)F)cc3)(C5)C4)cc2)c(C(F)(F)F)c1
label 0

State the result this test recorded for COc1ccc(-c2oc3cc(O)cc(O)c3c(=O)c2OC)cc1 .
label 0

Dear colleague, could you share the recorded outcome for CC(=O)Nc1ncc2c(n1)-c1ccccc1OC2 when you have a moment?
label 0

For this compound, state the assay outcome: O=C1NNC2NC(=O)C3(NN2C1=O)c1ccccc1-c1ccccc13 (stereo unspecified)
label 0

Which outcome was assigned to CC(C)(C)C1=C(Br)C(OC(=O)C(F)(F)F)(C(C)(C)C)OP1(=O)c1ccccc1 (stereo unspecified) in this test?
label 0

For CC12CCCCC1=C(F)C(F)(F)S2 (stereo unspecified) , what call appears in the results of this test?
label 0

Hey, what did the test say about COC(=O)CNC(=O)C(CSC(=O)OCC1c2ccccc2-c2ccccc21)NC(=O)CCC(NC(=O)OCC1c2ccccc2-c2ccccc21)C(=O)OC (stereo unspecified) ?
label 0

Could you check what this test reported for C(=N\c1ccc(-c2nc3ccccc3[nH]2)cc1)/c1ccco1 ?
label 0

Which result was noted for this compound in the test: COc1nc2ccc(Cl)c(C(O)c3ccccc3)c2nc1OC (stereo unspecified)
label 0

Would you mind telling me which call this test gave CCC(NC1=NCCO1)c1cccs1 (stereo unspecified) ?
label 0

# lookup: test call for CCc1c(C)c(C#N)c(=S)n(C2OC(CO)C(O)C(O)C2O)c1C (stereo unspecified)
label 0

Entry O=C1CCc2cc3c(cc21)CC1(Cc2ccccc2C1)C3 : call = ?
label 0

Any idea what this test logged for Cc1ccc(NC(Nc2ccc(C)cc2C)=C(/C=C(\Cl)[N+](=O)[O-])[N+](=O)[O-])c(C)c1 ?
label 0

Could you check what this test reported for O=[N+]([O-])c1ccc(/C=N/CC2CCCN3CCCCC23)cc1 (stereo unspecified) ?
label 0

###

# Test system: NCI-H226
# assayName: NCI tumour cell line growth inhibition, 48 h
Activity calls are given as the source filed them. Rule as the data show it: active = GI50 up to about 1.1 µM and inactive = higher.
measuredQuantity: GI50

Query GI50 for O=C(NCCN1CCOCC1)c1ccc(I)cc1
> 100 µM (inactive)

Provide only the value of recorded GI50 for CN(C)c1ccc(/C=N\NC(=O)CSCC(=O)N/N=C/c2ccc(N(C)C)cc2)cc1
34.2 µM (inactive)

For COc1cc2c3c(c1OC)C1(C=CC(=O)C=C1)CC3NCC2 (configuration not stated) , write its GI50.
> 100 µM (inactive)

State, in one line, measured GI50 of COC(=O)n1c(=O)nc2c3c(ncn21)Oc1c(c(-c2ccccc2)nn1-c1ccccc1)C3c1ccc(Cl)cc1 (configuration not stated)
1.58 µM (inactive)

Give me measured GI50, please, for this compound: Cc1c(Cl)c(C)c(Cl)c(O)c1Cl
15.1 µM (inactive)

Answer with reported GI50 of ClC(Cl)(Cl)C1CCOC1n1nnc2ccccc21 (configuration not stated)
> 100 µM (inactive)

Answer with reported GI50 of CN(C)c1snc2c1c(=O)n(C)c(=O)n2C
65.2 µM (inactive)

Query GI50 for O=[N+]([O-])c1cccc(CSc2nc(O)c3nc[nH]c3n2)c1
79.8 µM (inactive)

Given the compound O=C(O)c1ccc(/N=N/c2cc(S(=O)(=O)O)c3cccnc3c2O)cc1 , write its reported GI50.
> 100 µM (inactive)

State, in one line, measured GI50 of O=C1C2C3C=C4c5ccccc5N(c5ccccc5)C4(C2C(=O)N1c1ccc([N+](=O)[O-])cc1)[C@H]1C(=O)N(c2ccc([N+](=O)[O-])cc2)C(=O)[C@@H]31 (some centres not stated)
> 100 µM (inactive)

Look up GI50 of CN(C)/N=N/c1[nH]cnc1C(N)=O and report it.
75.2 µM (inactive)

Provide GI50 value for the following compound: Cn1c2c(c3ccccc31)CCN1C(=O)C34CCCC3CC21S4 (configuration not stated)
> 100 µM (inactive)

Look up and state reported GI50 for CN(Cc1cnc2c(n1)C(N)=NN(N)N2)c1ccc(C(=O)NC(CCP(=O)(O)O)C(=O)O)cc1 (configuration not stated)
> 35.1 µM (inactive)

Respond only with GI50 recorded for COc1ccc(NC(=O)C(=O)C2CNC(=O)NC2=O)c(OC)c1 (configuration not stated)
> 100 µM (inactive)

// Input: COC(=O)/C=C/[C@@H]1[C@H](C)N1S(=O)(=O)c1ccc(C)cc1 (some centres not stated) . Output its GI50 only.
> 100 µM (inactive)

Complete the entry with GI50 for CC12CCCCC1=C(F)C(F)(F)S2 (configuration not stated)
> 100 µM (inactive)

Given the compound CC(=O)Nc1ncc2c(n1)-c1ccccc1OC2 , write its reported GI50.
> 100 µM (inactive)

Indicate the recorded GI50 value for this compound: COc1cccc2c1Cc1cc(-c3ccccc3)[n+](C)n1-2
11.7 µM (inactive)

Provide measured GI50 value, entry: COC(=O)C1=C(C)NC(C)=C(C(=O)OC)C1c1cccc(N=O)c1
16.3 µM (inactive)

Identify the reported GI50 for the following entry. O[C@H]1[C@H](O)[C@@H](O)CN2CC[C@H](O)[C@H]12
> 100 µM (inactive)

Recall and state the measured GI50 for N#C[BH2-][n+]1ccc(C(=O)NNCc2ccccc2)cc1 .
> 100 µM (inactive)

Provide only the value of recorded GI50 for Cc1ccc(-c2c(N)nc(NC#N)nc2CCC(=O)Nc2ccccc2[N+](=O)[O-])cc1
> 100 µM (inactive)

Using the record for CC(C)(C)OCC1NC(=O)[C@@H]2Cc3c([nH]c4ccccc34)C(c3ccccc3)N2C1=O (some centres not stated) , state its measured GI50.
> 27.4 µM (inactive)

Please report the measured GI50 for O=C(/C=C/c1ccc(O)c(O)c1)OCC(OC(=O)/C=C/c1ccc(O)c(O)c1)C(=O)O (configuration not stated)
> 100 µM (inactive)

Specify reported GI50 for the compound shown: N#CN1C2CCC1CC(=O)C2
> 10 µM (inactive)

Input CCN(CC)CCCCC1CCN(CC(=O)N2c3cc(Cl)ccc3NC(=O)CC2C)CC1 (configuration not stated) , output reported GI50.
> 100 µM (inactive)

For CC1(C)[C@@H](Cn2ccc(=O)[nH]c2=O)CC[C@@]1(C)CO , write its GI50.
> 100 µM (inactive)

State, in one line, measured GI50 of CN(C)CCNCc1c2ccccc2c(CNCCN(C)C)c2ccccc12
19.5 µM (inactive)

Give recorded GI50. O=C1NC(=S)NC(=O)C1=C(O)Nc1ccccc1
30.5 µM (inactive)

Specify reported GI50 for the compound shown: O=C(C[n+]1ccccc1)N/N=C(\Cc1nc2ccc([N+](=O)[O-])cc2nc1O)C(=O)Nc1cc(Cl)c(Cl)cc1Cl
50.5 µM (inactive)

Report GI50, nothing else, for this compound: Cc1cc2c(cc1C)C(=O)/C(=N/Nc1ccc(F)cc1)CCO2
> 100 µM (inactive)

Write down GI50 measured for item COc1ccc(/C=C/C(=O)c2ccccc2)cc1OC
19.8 µM (inactive)
